Value source: patent US8557796B2

System: batrachotoxin (BTX) binding site (binding site 2) of the sodium channel
Experiment: Bond test on the sodium channel, binding site 2 (BTX bond), [3H]-batrachotoxinin A20 α-benzoate displacement
Details: rat cerebrocortex synaptosomes
Classify by BTX bond, 10 μM, % inhibition. Ranges: bottom (below 60%), middle (60% to below 70%), top (70% or more)

compound: O=C(NCc1ccccc1)C1=NOC2(CCN(C(=O)c3ccncc3)CC2)C1
measured.on: batrachotoxin (BTX) binding site (binding site 2) of the sodium channel
classification: bottom
--
compound: O=C(C1=NOC2(CCN(S(=O)(=O)c3cccs3)CC2)C1)N1CCN(CCCc2ccccc2)CC1
measured.on: batrachotoxin (BTX) binding site (binding site 2) of the sodium channel
classification: top
--
compound: O=C(C1=NOC2(CCN(S(=O)(=O)c3ccc(OC(F)(F)F)cc3)CC2)C1)N1CCN(CCCc2ccccc2)CC1
measured.on: batrachotoxin (BTX) binding site (binding site 2) of the sodium channel
classification: top
--
compound: O=C(NCCCc1ccccc1)C1=NOC2(CCN(S(=O)(=O)c3ccc(F)cc3)CC2)C1
measured.on: batrachotoxin (BTX) binding site (binding site 2) of the sodium channel
classification: middle
--
compound: O=C(C1=NOC2(CCN(S(=O)(=O)c3ccc(F)cc3)CC2)C1)N1CCN(C2CCCCCC2)CC1
measured.on: batrachotoxin (BTX) binding site (binding site 2) of the sodium channel
classification: top
--
compound: O=C(NCc1ccccc1)C1=NOC2(CCN(S(=O)(=O)c3cccs3)CC2)C1
measured.on: batrachotoxin (BTX) binding site (binding site 2) of the sodium channel
classification: bottom
--
compound: Cc1ccccc1N1CCN(C(=O)C2=NOC3(CCN(S(=O)(=O)Cc4ccccc4)CC3)C2)CC1
measured.on: batrachotoxin (BTX) binding site (binding site 2) of the sodium channel
classification: bottom
--
compound: O=C(NCc1cccs1)C1=NOC2(CCN(C(=O)c3cccc(Cl)c3F)CC2)C1
measured.on: batrachotoxin (BTX) binding site (binding site 2) of the sodium channel
classification: middle
--
compound: CCOC(=O)N1CCC(NC(=O)C2=NOC3(CCN(C(=O)c4ccc(Br)cc4)CC3)C2)CC1
measured.on: batrachotoxin (BTX) binding site (binding site 2) of the sodium channel
classification: bottom
--
compound: O=C(NCc1cccs1)C1=NOC2(CCN(C(=O)c3cccc4ccccc34)CC2)C1
measured.on: batrachotoxin (BTX) binding site (binding site 2) of the sodium channel
classification: top
--
compound: O=C(NC1CCCC1)C1=NOC2(CCN(C(=O)c3ccccc3COC(=O)c3ccccc3)CC2)C1
measured.on: batrachotoxin (BTX) binding site (binding site 2) of the sodium channel
classification: top
--
compound: O=C(NC1CCN(Cc2ccc(C(F)(F)F)cc2)C1)C1=NOC2(CCN(S(=O)(=O)c3cccs3)CC2)C1 (centres unmarked)
measured.on: batrachotoxin (BTX) binding site (binding site 2) of the sodium channel
classification: top
--
compound: O=C(NC1CCCC1)C1=NOC2(CCN(C(=O)c3cccnc3Oc3ccccc3)CC2)C1
measured.on: batrachotoxin (BTX) binding site (binding site 2) of the sodium channel
classification: bottom
--
compound: O=C(NC1CCCC1OCc1ccccc1)C1=NOC2(CCN(S(=O)(=O)c3ccc(F)cc3)CC2)C1 (centres unmarked)
measured.on: batrachotoxin (BTX) binding site (binding site 2) of the sodium channel
classification: middle
--
compound: Cc1ccc(C(C)NC(=O)C2=NOC3(CCN(S(=O)(=O)c4ccc(C)cc4)CC3)C2)cc1 (centres unmarked)
measured.on: batrachotoxin (BTX) binding site (binding site 2) of the sodium channel
classification: bottom
--
compound: Cc1onc(-c2c(F)cccc2Cl)c1C(=O)N1CCC2(CC1)CC(C(=O)NCc1ccccc1)=NO2
measured.on: batrachotoxin (BTX) binding site (binding site 2) of the sodium channel
classification: bottom
--
compound: CCc1ccc(C(=O)N2CCC3(CC2)CC(C(=O)NCc2cccs2)=NO3)cc1
measured.on: batrachotoxin (BTX) binding site (binding site 2) of the sodium channel
classification: middle
--
compound: O=C(NCc1cccs1)C1=NOC2(CCN(C(=O)c3ccc(SC(F)(F)F)cc3)CC2)C1
measured.on: batrachotoxin (BTX) binding site (binding site 2) of the sodium channel
classification: top
--
compound: Cc1ccc(S(=O)(=O)N2CCC3(CC2)CC(C(=O)N2CCN(c4ccc(C)cc4C)CC2)=NO3)cc1
measured.on: batrachotoxin (BTX) binding site (binding site 2) of the sodium channel
classification: middle
--
compound: O=C(NCc1cccs1)C1=NOC2(CCN(C(=O)c3cccc(Cl)c3)CC2)C1
measured.on: batrachotoxin (BTX) binding site (binding site 2) of the sodium channel
classification: top
--
compound: O=C(C1=NOC2(CCN(S(=O)(=O)c3cccs3)CC2)C1)N1CCN(C2CCCCCC2)CC1
measured.on: batrachotoxin (BTX) binding site (binding site 2) of the sodium channel
classification: top
--
compound: Cc1oc(C(C)(C)C)cc1C(=O)N1CCC2(CC1)CC(C(=O)NC1CCCC1)=NO2
measured.on: batrachotoxin (BTX) binding site (binding site 2) of the sodium channel
classification: bottom
--
compound: COc1cccc(CCNC(=O)C2=NOC3(CCN(S(=O)(=O)c4ccc(F)cc4)CC3)C2)c1
measured.on: batrachotoxin (BTX) binding site (binding site 2) of the sodium channel
classification: bottom
